Tested on: HL-60(TB) leukemia
Assay explanation: NCI-60 one-dose screen, 48 h (100 = growth as untreated, 0 = no growth, -100 = all killed)
Recorded conditions: 10 µM unless noted
Description: Growth inhibition of the HL-60(TB) human tumor cell line is measured as a screen for anti-cancer activity. Cells are grown in 96 well plates and exposed to the test compound for 48 hours. Compounds are tested at a single concentration, which is 10^-5 M for most compounds. The reported endpoint is percent growth (GI% or GIPRCNT), where numbers from 0 - 100% represent growth inhibition, and numbers from -100% - 0 represent cell death. For example, a value of 40 represents 60% growth inhibition. […]
The panel holds about 83,000 compounds, 20% with a hit somewhere; the sample as a whole holds those more often.
The label depends only on growth: Criterion met if it is at least 20%, Criterion not met if it is smaller.

Molecule	Measured on	Qualitative label
COc1ccc(/C=C\c2cc(OC)c(OC)c(OC)c2)c(NS(=O)(=O)c2ccc(C)cc2)c1O	HL-60(TB) leukemia	Criterion not met
CCC[CH2][Sn]([CH2]CCC)([CH2]CCC)[O]c1ccc(Cl)cc1Cl	HL-60(TB) leukemia	Criterion not met
COC(=O)[C@@H](C)C[C@H](Cc1ccccc1)NC(=O)c1csc(CC[C@H](C(C)C)N(C)C(=O)[C@@H](NC(=O)[C@H]2CCCCN2C)C(C)C)n1	HL-60(TB) leukemia	Criterion not met
CC(=O)OCc1cc[c]([Hg][Cl])o1	HL-60(TB) leukemia	Criterion not met
CC1=C(CN)C2=C(C)C3(CC3)[C@@](C)(O)C(=O)C2=C1	HL-60(TB) leukemia	Criterion met
COC(=O)[C@@H](C)C[C@H](Cc1ccccc1)NC(=O)c1nc([C@@H](C[C@H](C(C)C)N(C)C(=O)[C@@H](NC(=O)[C@H]2CCCCN2C)C(C)C)OC(C)=O)sc1C	HL-60(TB) leukemia	Criterion not met
CC(=O)O[C@H](C[C@H](C(C)C)N(C)C(=O)[C@@H](NC(=O)[C@H]1CCCCN1C)C(C)C)c1nc(C(=O)N[C@@H](Cc2ccccc2)C[C@H](C)C(=O)O)c(C)s1	HL-60(TB) leukemia	Criterion not met
Brc1ccc2c(c1)c(-c1nc(-c3c[nH]c4ncccc34)cs1)cn2CCN1CCOCC1	HL-60(TB) leukemia	Criterion met
CCCCCCCCCCCCCCCCCC1OC[C@@H](COC(=O)O[C@@H](C(=O)O[C@H]2C[C@@]3(O)[C@@H](OC(=O)c4ccccc4)[C@@H]4[C@]5(OC(C)=O)CO[C@@H]5C[C@H](O)[C@@]4(C)C(=O)[C@H](OC(C)=O)C(=C2C)C3(C)C)[C@@H](NC(=O)c2ccccc2)c2ccccc2)O1 (stereo not given in full)	HL-60(TB) leukemia	Criterion met
Cn1cccc1C1CC(=O)N(CCC[Se]C#N)C1=O (stereo not given)	HL-60(TB) leukemia	Criterion not met
O=C1N[C@@H]2[C@@H](O)[C@@H](O)[C@H](O)C[C@H]2c2cc3c(c(O)c21)OCO3	HL-60(TB) leukemia	Criterion not met
CO[C@H]1CC[C@@]2(C)C(=CC[C@@H]3[C@@H]2CC[C@]2(C)C(=O)C(=O)C[C@@H]32)C1	HL-60(TB) leukemia	Criterion met
CC[C@]12C=CCN3CC[C@@]4(c5ccc(OC)cc5N(C)[C@H]4[C@@](O)(C(=O)OC)[C@@H]1OC(=O)CCCC[P+](c1ccccc1)(c1ccccc1)c1ccccc1)[C@@H]32	HL-60(TB) leukemia	Criterion not met
O=C(O)c1c(Cl)n(Cc2ccc(O)cc2)c2ccc(O)cc12	HL-60(TB) leukemia	Criterion met
